Data provenance is patent US20250127913A1.

A short record of IC50 observed with folate receptor beta (Homo sapiens (Human)) follows.
Sequence (P14207 17-255): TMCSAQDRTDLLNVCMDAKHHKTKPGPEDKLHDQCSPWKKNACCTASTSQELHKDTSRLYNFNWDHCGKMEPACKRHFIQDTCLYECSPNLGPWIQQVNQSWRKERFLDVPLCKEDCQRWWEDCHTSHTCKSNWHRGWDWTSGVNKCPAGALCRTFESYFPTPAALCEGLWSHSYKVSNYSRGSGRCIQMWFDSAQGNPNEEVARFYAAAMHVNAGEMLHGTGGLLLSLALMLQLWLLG
quantity-kind: IC50 (nM)

compound: CN(Cc1cnc2nc(N)[nH]c(=O)c2n1)c1ccc(C(=O)N[C@@H](CCc2cn(CCOCCOCCOCCOCCOCCOCC(=O)N3CCN(c4ncc(-c5ccc6nc(COc7cccc(N8CCCC8=O)c7)n(Cc7ccccc7OC(F)F)c6c5)cn4)CC3)nn2)C(=O)O)cc1 [Compound I-83]
unit-text: nM
endpoint-result: 5.3
--
compound: Cc1nc2cc(F)c(-c3cnc(N4CCN(C(=O)COCCn5cc(CN(C)CCOCCOCCOCCNC(=O)CC[C@H](NC(=O)c6ccc(NCc7cnc8nc(N)nc(O)c8n7)cc6)C(=O)O)nn5)CC4)nc3)nc2c(N[C@H](C)c2cc(C#N)ccc2F)c1Cl [Compound I-94]
unit-text: nM
endpoint-result: 9.3
--
compound: Cc1nc2cc(F)c(-c3cnc(N4CCN(C(=O)COCCn5cc(COCCOCCOCCOCCNC(=O)CCCNC(=O)c6ccc(NCc7cnc8nc(N)nc(O)c8n7)cc6)nn5)CC4)nc3)nc2c(N[C@H](C)c2cc(C#N)ccc2F)c1Cl [Compound I-96]
unit-text: nM
endpoint-result: 20
--
compound: Cc1nc2cc(F)c(-c3cnc(N4CCN(C(=O)COCCn5cc(COCCOCCOCCN6CCN(C(=O)CC[C@H](NC(=O)c7ccc(NCc8cnc9nc(N)nc(O)c9n8)cc7)C(=O)O)CC6)nn5)CC4)nc3)nc2c(N[C@H](C)c2cc(C#N)ccc2F)c1Cl [Compound I-95]
unit-text: nM
endpoint-result: 11
